Target: CIB1 and αIIb interaction (CIB1-GST : F-αIIb peptide) (Homo sapiens)
Construct: made in house; host or cells: BL-21 plus RIL cells (E. coli)
Sequence (Q99828 whole entry): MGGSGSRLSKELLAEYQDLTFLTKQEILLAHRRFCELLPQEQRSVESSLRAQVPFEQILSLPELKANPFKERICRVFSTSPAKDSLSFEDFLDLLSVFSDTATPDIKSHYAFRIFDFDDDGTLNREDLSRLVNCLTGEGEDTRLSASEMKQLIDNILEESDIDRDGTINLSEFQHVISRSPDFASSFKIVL
Assay: FP assay, 1536-well qHTS format (primary and confirmatory screen)
Format: binding
Conditions: Table S3, confirmatory screen, qHTS curve class; a negative sign marks inhibitory curves
Can you tell me Curve Class (confirmatory screen) for the items I'm about to list?
Enter a number only.

Form field Curve Class (confirmatory screen), entry Nc1ccc(O)c(C(=O)O)c1 : 4

Form field Curve Class (confirmatory screen), entry COc1ccc2[nH]c([S+]([O-])Cc3ncc(C)c(OC)c3C)nc2n1 (centres unmarked) : -1.2

Form field Curve Class (confirmatory screen), entry O=C(Cc1ccccc1)NC(c1ccco1)c1cc(Cl)c2cccnc2c1O.O=C(O)C(F)(F)F (centres unmarked) : 4

Form field Curve Class (confirmatory screen), entry Cc1ccc(C(=O)NC(c2ccco2)c2cc(Cl)c3cccnc3c2O)cc1 (centres unmarked) : 4

Form field Curve Class (confirmatory screen), entry Cc1ccc(S(=O)(=O)Nc2ccc(Br)cc2C(=O)Nc2nc(-c3ccccc3)cs2)cc1.O=C(O)C(F)(F)F : 2.4

Form field Curve Class (confirmatory screen), entry NS(=O)(=O)c1ccc(Cc2c(-c3ccc(F)c(-c4ccc(F)cc4)c3)nn(-c3nc(C(=O)O)cs3)c2C2CC2)cc1F.O=C(O)C(F)(F)F : 3

Form field Curve Class (confirmatory screen), entry COc1ccc(-n2ncc3c2CCCC3NC(=O)c2ccccc2F)cc1.O=C(O)C(F)(F)F (centres unmarked) : 2.4

Form field Curve Class (confirmatory screen), entry COc1ccccc1Nc1ccc2c(O)cc(S(=O)(=O)O)cc2c1.O=C(O)C(F)(F)F : -2.1

Form field Curve Class (confirmatory screen), entry COc1cccc(CN(C)c2ccc(S(=O)(=O)Nc3nccs3)cc2)c1O.O=C(O)C(F)(F)F : -2.4

Form field Curve Class (confirmatory screen), entry Nc1nc2c(s1)C(c1ccccc1)CC(=O)N2 (centres unmarked) : 4

Form field Curve Class (confirmatory screen), entry CN(C)CCc1c[nH]c2cccc(O)c12 : -2.2

Form field Curve Class (confirmatory screen), entry CN(C)CCCCCCNC(=O)c1cccc(-c2cc(O)c3ncccc3c2)c1.O=C(O)C(F)(F)F : 4

Form field Curve Class (confirmatory screen), entry Cc1ccsc1C1N=C(Nc2nc3ccccc3o2)NC2=C1C(=O)CCC2.O=C(O)C(F)(F)F (centres unmarked) : 4

Form field Curve Class (confirmatory screen), entry Cc1ccc(S(=O)(=O)Nc2cc3c(cc2C(=O)Nc2nc(-c4ccccc4)cs2)OCO3)cc1.O=C(O)C(F)(F)F : 4

Form field Curve Class (confirmatory screen), entry CS(=O)(=O)c1ccc(C(=O)OCC(=O)N2CCN(CCC3CCCCC3)CC2)cc1[N+](=O)[O-].O=C(O)C(F)(F)F : -3

Form field Curve Class (confirmatory screen), entry NS(=O)(=O)c1ccc(Nc2nc(-c3ccccc3)cs2)cc1.O=C(O)C(F)(F)F : -2.2

Form field Curve Class (confirmatory screen), entry CC(=O)c1c(O)cc2c(c1C)C(=O)CC(O)C2 (centres unmarked) : 4

Form field Curve Class (confirmatory screen), entry O=C(O)C(F)(F)F.O=C1CCCC2=C1C(c1ncccc1C(F)(F)F)N=C(Nc1nc3ccccc3o1)N2 (centres unmarked) : 4

Form field Curve Class (confirmatory screen), entry CC[C@@H](c1ccc(F)c(F)c1)n1c(C(=O)OC)c(-c2ccno2)[nH]c1=S : 4

Form field Curve Class (confirmatory screen), entry C/C(=C\c1ccc2c(c1)OCO2)C1Nc2cccc3cccc(c23)N1 : 4

Form field Curve Class (confirmatory screen), entry COC(=O)c1scc2c(O)cc(C(F)(F)F)nc12 : -3

Form field Curve Class (confirmatory screen), entry O=C(N/N=C1\C(=O)N(CCc2ccccc2)c2ccccc21)c1cccnc1 : -2.2

Form field Curve Class (confirmatory screen), entry Cc1c(Cc2ccc3ccccc3n2)c2cc(F)ccc2n1CC(=O)O : -2.1

Form field Curve Class (confirmatory screen), entry Cc1cc(C(C#N)c2ccc(Cl)cc2)c(Cl)cc1NC(=O)c1cc(I)cc(I)c1O (centres unmarked) : 4

Form field Curve Class (confirmatory screen), entry O=C(O)C(F)(F)F.O=C1CCCC2=C1C(c1n[nH]cc1Cl)NC(Nc1nc3ccccc3o1)=N2 (centres unmarked) : -1.2

Form field Curve Class (confirmatory screen), entry COc1ccccc1Nc1cc2ccccc2c(O)n1 : -2.1

Form field Curve Class (confirmatory screen), entry CN1CCCN(C(=O)c2cccc(-c3ccc(/C=C4/C(=O)Nc5ccc(Cl)cc54)o3)c2)CC1 : -1.3

Form field Curve Class (confirmatory screen), entry O=C(Nc1ccc(S(=O)(=O)N2CCOCC2)cc1)c1cc(Cl)ccc1NS(=O)(=O)c1ccc(Cl)s1.O=C(O)C(F)(F)F : 4

Form field Curve Class (confirmatory screen), entry O=C1c2ccccc2C(=O)c2c1ccc(O)c2O : -1.1

Form field Curve Class (confirmatory screen), entry CNc1nc2c(s1)C(c1c(F)cccc1Cl)CC(=O)N2.O=C(O)C(F)(F)F (centres unmarked) : 4

Form field Curve Class (confirmatory screen), entry O=C(NNC(=O)c1nc2ccccc2[nH]1)OCc1ccccc1 : 4

Form field Curve Class (confirmatory screen), entry O=C(c1cc(O)c(O)c(O)c1)c1ccc(O)c(O)c1O : -2.1
